# Tested on: LPS-induced NO production in RAW 264.7 macrophage cells
# PROCEDURE_SUMMARY: Inhibition of LPS-induced NO production (nitrite, Griess reagent)
# MEASUREMENT_CONDITIONS: Mus musculus, RAW264.7, read-out: IC50 (concentration that caused 50% inhibition of NO production), LPS-activated RAW 264.7 macrophage cells; pretreated 1 h with compounds, then LPS (1 μg/mL) for 24 h; mean ± SD, three independent experiments
QUANTITY_KIND: IC50

Past entries and their recorded results:
COc1cc([C@H]2OC[C@H]3[C@@H]2CO[C@@H]3c2ccc3c(c2)OCO3)ccc1O[C@@H]1O[C@H](CO)[C@@H](O)[C@H](O)[C@H]1O [Compound 9, simlexoside] ... 53 µM
COc1cc([C@H]2OC[C@H]3[C@@H]2CO[C@@H]3c2ccc3c(c2)OCO3)ccc1O [Compound 7, (+)-xanthoxylol] ... 27.6 µM

Returns the measured IC50 for the input molecule. Input: COc1cc(OC)cc([C@@H](O)[C@H]2COC[C@@H]2Cc2ccc(O)c(O)c2)c1 [Compound 1]
49.9 µM

Entry source: paper PMC6270163
